- assayName: Fluorescence ANTS/DPX vesicle leakage assay in POPE/POPG/TOCL (72:23:5)
- conditionContext: Table S16 series (Gly mutants), POPE/POPG/TOCL (72:23:5) 100 nm vesicles, P/L ≈ 1:30, mixtures 1:1, 10 mM HEPES pH 7.5, 155 mM NaCl, 30 °C, 600 s, % of Triton-X-100 leakage, mean of n = 3
No end group written: not given here.
Give Y when the value for Leakage, mean value is at least 2%. Give N when it is less.

Below, 4 substances whose answers are already recorded.
State whether the measured Leakage, mean value reaches 2%, counting equality as reaching it, for GMASKAAAIAGKIGKVALKAL-NH2 (also: 15N-labeled Ala10) [PGLa-GS1, PGLa glycine-shift mutant with GxxG motif]
Y

GMASKAGAIAGKIAKVALKAL-NH2 [PGLa-WT, PGLa wild type antimicrobial peptide from Xenopus laevis skin, 15N-labeled at Ala10, reference compound] ?
Y

And what about the substance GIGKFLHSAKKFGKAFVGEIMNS-OH [MAG2-WT, magainin 2, wild type antimicrobial peptide from Xenopus laevis skin, reference compound] ?
N

How about GMASKAGAIA IKIAKVALKAL-NH2 [PGLa-G11I, PGLa glycine mutant G11I] ?
Y

Turning now to a further substance:
Does Leakage, mean value meet or surpass 2% for GMASKAIAG A IKGAKVALKAL-NH2 [PGLa-GS2, PGLa glycine-shift mutant, GxxxG on opposite helix face] ?
Y
